Taken from patent US12220421B2.

System: C. difficile R20291 spores
Assay: C. difficile spore germination assay (optical density, OD580)
Conditions: Clostridioides difficile, R20291SPORES, read-out: % Germination (125 μM), Table 5; compound 125 μM, 6 mM taurocholate, 12 mM glycine; 100% indicates no inhibition
activity at 125 µM reference

compound | activity at 125 µM [%]
C[C@H](CCC(=O)Nc1ccccc1)[C@H]1CC[C@H]2[C@@H]3CC[C@@H]4C[C@H](O)CC[C@]4(C)[C@H]3CC[C@]12C [Compound 61] | 100
C[C@H](CCC(=O)Nc1ccccc1)[C@H]1CC[C@H]2[C@@H]3[C@@H](O)C[C@@H]4C[C@H](O)CC[C@]4(C)[C@H]3CC[C@]12C [Compound 65] | 57
Cc1ccc(F)cc1NC(=O)CC[C@@H](C)[C@H]1CC[C@H]2[C@@H]3CC[C@@H]4C[C@H](O)CC[C@]4(C)[C@H]3C[C@H](O)[C@]12C [Compound 60] | 65
Cc1ccc(F)cc1NC(=O)CC[C@@H](C)[C@H]1CC[C@H]2[C@@H]3CC[C@@H]4C[C@H](O)CC[C@]4(C)[C@H]3CC[C@]12C [Compound 64] | 100
C[C@H](CCC(=O)Nc1cccc(F)c1)[C@H]1CC[C@H]2[C@@H]3CC[C@@H]4C[C@H](O)CC[C@]4(C)[C@H]3C[C@H](O)[C@]12C [Compound 59] | 59
C[C@H](CCC(=O)Nc1ccccc1)[C@H]1CC[C@H]2[C@@H]3[C@H](O)C[C@@H]4C[C@H](O)CC[C@]4(C)[C@H]3CC[C@]12C [Compound 53] | 14
C[C@H](CCC(=O)Nc1cccc(F)c1)[C@H]1CC[C@H]2[C@@H]3CC[C@@H]4C[C@H](O)CC[C@]4(C)[C@H]3CC[C@]12C [Compound 63] | 100
C[C@H](CCC(=O)Nc1cccc(F)c1)[C@H]1CC[C@H]2[C@@H]3[C@H](O)C[C@@H]4C[C@H](O)CC[C@]4(C)[C@H]3CC[C@]12C [Compound 55] | 100
COc1ccccc1NC(=O)CC[C@@H](C)[C@H]1CC[C@H]2[C@@H]3[C@@H](O)C[C@]4(C)C[C@H](O)CC[C@]4(C)[C@H]3CC[C@]12C [Compound 66] | 100
C[C@H](CCC(=O)Nc1cccc(F)c1)[C@H]1CC[C@H]2[C@@H]3[C@@H](O)C[C@]4(C)C[C@H](O)CC[C@]4(C)[C@H]3CC[C@]12C [Compound 67] | 100
C[C@H](CCC(=O)Nc1ccccc1)[C@H]1CC[C@H]2[C@@H]3CC[C@@H]4C[C@H](O)CC[C@]4(C)[C@H]3C[C@H](O)[C@]12C [Compound 57] | 3
Cc1ccc(F)cc1NC(=O)CC[C@@H](C)[C@H]1CC[C@H]2[C@@H]3[C@@H](O)C[C@@H]4C[C@H](O)CC[C@]4(C)[C@H]3CC[C@]12C [Compound 68] | 100
Cc1ccc(F)cc1NC(=O)CC[C@@H](C)[C@H]1CC[C@H]2[C@@H]3[C@H](O)C[C@@H]4C[C@H](O)CC[C@]4(C)[C@H]3CC[C@]12C [Compound 56] | 66
COc1ccccc1NC(=O)CC[C@@H](C)[C@H]1CC[C@H]2[C@@H]3[C@H](O)C[C@@H]4C[C@H](O)CC[C@]4(C)[C@H]3CC[C@]12C [Compound 54] | 31
